We begin with a simple list: items and their reported NADPH fluorescence slope.
Molecular target: Voltage-gated potassium channel subunit beta-2 (Rattus norvegicus)
Assay: KvBeta positive modulators, primary screen, biochemical, NADPH fluorescence (AID 623);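 further: fluorescence intensity change per second fitted from 20 to 320 s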
Conditions: Recombinant KvBeta, NADPH fluorescence decrease slope, 10 min; at 10 µM; stronger effect = lower value
Reply with just the number.

O=C(COc1ccccc1)NCC(c1cccs1)N1CCOCC1 (stereo unspecified) ... 0.000103

Fill in the blank: the reported NADPH fluorescence slope of c1ccc(CSc2nnc(-c3cccs3)n2Cc2ccco2)cc1 is ____.
3.8e-06

Entry CCN(CC)C(=O)CSc1nc2ccccc2c(=O)n1CC1CCCCC1 please
5.7e-06

Entry COC(=O)/C(C#N)=C1/SC=C(C)N1c1ccccc1 please
-5.6e-05

====

Assay: inhibitors of Sendai virus-induced IRF3 signaling, primary screen, TLR/RLR signaling modifier project, cell-based, Sendai virus stimulus, luciferase, 10K MLSCN set (AID 602276);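 further: firefly luciferase from ISG56 promoter only with Renilla not read in this screen; 0% = Sendai virus plus DMSO and 100% = medium plus DMSO without virus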
Details: HEK293 RL24 IRF3 luciferase reporter, at 10 µM, stronger effect = higher value
measurement_type: inhibition (%)
All answers are understood in %, so give the number only.

Fill in the blank: the reported inhibition of Cc1csc(NC(=O)CCn2c(=O)oc3ccccc32)n1 is ____.
4.3

Entry CN(C)CCN1C(=O)C(O)=C(C(=O)c2cc3ccccc3o2)C1c1ccc(N(C)C)cc1 (stereo not drawn) please
7.8

Entry O=C(Nc1ccccn1)N1CCOCC1 please
1.79

Entry COC(=O)c1ccccc1OCC(=O)NC1CCCCC1 please
-18.9

Entry CCCCCC1CC(CC(=O)O)C(=O)O1 (stereo not drawn) please
7.61

Entry Oc1c(C(c2ccccc2)N2CCc3ccccc3C2)sc2ncnn12 (stereo not drawn) please
12.6

Entry CSc1cccc(NC(=O)C2CCN(S(=O)(=O)c3ccc(F)cc3)CC2)c1 please
16.9

Entry COc1ccc(S(=O)(=O)N2CCCC2C(=O)Nc2ccc(C)cc2)cc1 (stereo not drawn) please
12.2

Entry CC(C)N(C(=O)CSc1nnc(NC(=O)C2CCC2)s1)C(C)C please
17.8

Entry Cc1ccc2cc3cc(C(=O)N4CC(C)CC(C)C4)oc3nc2c1 (stereo not drawn) please
2.56

Entry O=C(C1CCCN(S(=O)(=O)c2ccc(Br)s2)C1)N1CCCCCC1 (stereo not drawn) please
2.37

Entry O=C(COc1ccccc1)NCC(c1cccs1)N1CCOCC1 (stereo not drawn) please
-14.3

Entry O=C(CSc1nnc2c3cc(F)ccc3nc(-c3ccccc3)n12)N1CCOCC1 please
-0.506

Entry Cc1c(C#N)c2ncnc(-c3ccccc3)c2n1-c1ccccc1 please
15.3

Entry Cc1ccc(/C=c2\s/c(=C(/C#N)C(=O)N3CCCC3)n(Cc3ccco3)c2=O)s1 please
16.4

Entry O=C(NCc1cccnc1)C1CCCN(S(=O)(=O)c2ccc(Cl)cc2)C1 (stereo not drawn) please
-7.82

====

We begin with a simple list: items and their reported fluorescence slope.
Molecular target: Voltage-gated potassium channel subunit beta-2 (Rattus norvegicus)
Assay: KvBeta enzyme negative modulators, primary screen, biochemical, NADPH fluorescence (AID 622);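 further: slope of raw intensity against log time taken from 70 to 1610 s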
Conditions: recombinant KvBeta, 4-cyanobenzaldehyde reduction, at 10 µM, stronger effect = higher value
Reply with just the number.

A selection of reference data follows.
Cc1cc(C)n2nc(S(=O)(=O)N(C)c3ccccc3)nc2n1 ... -0.568
Cc1ccc(N2C(=O)CC3(CC4C=CC3C4)C2=O)cc1 (stereo unspecified) ... -0.414
CCOC(=O)C1=C(N)n2c(s/c(=C\c3ccco3)c2=O)=C(C(=O)OC(C)C)C1c1ccco1 (stereo unspecified) ... -0.46
COc1ccc(C2=NOC(C(=O)Nc3cc(Br)ccc3O)C2)cc1OC (stereo unspecified) ... -0.459
Cn1nnc2cc(C(=O)N3CCCCCC3)ccc21 ... -0.478

--- query ---
Fill in the blank: the reported fluorescence slope of OC(CNCC1COc2ccccc2O1)COCc1cccs1 (stereo unspecified) is ____.
-0.568

====

Molecular target: Voltage-gated potassium channel subunit beta-2 (Rattus norvegicus) (UniProt P62483)
Sequence (P62483 whole entry, looked up): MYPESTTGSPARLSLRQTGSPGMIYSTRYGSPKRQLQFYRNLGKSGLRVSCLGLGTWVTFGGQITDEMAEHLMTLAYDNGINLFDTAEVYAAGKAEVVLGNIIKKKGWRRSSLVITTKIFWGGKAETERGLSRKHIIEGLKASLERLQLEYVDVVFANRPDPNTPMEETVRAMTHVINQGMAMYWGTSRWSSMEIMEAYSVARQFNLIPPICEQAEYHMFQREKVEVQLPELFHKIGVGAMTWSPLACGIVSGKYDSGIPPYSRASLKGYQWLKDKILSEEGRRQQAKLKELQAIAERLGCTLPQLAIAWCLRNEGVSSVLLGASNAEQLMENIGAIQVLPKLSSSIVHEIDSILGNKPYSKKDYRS
Test: KvBeta positive modulators, primary screen, biochemical, NADPH fluorescence (AID 623);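 further: fluorescence intensity change per second fitted from 20 to 320 s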
Conditions: Recombinant KvBeta, NADPH fluorescence decrease slope, 10 min; at 10 µM; stronger effect = lower value
measurement_type: NADPH fluorescence slope
Reply with just the number.

A selection of reference data follows.
C=Cn1nc(C)c2ccccc2c1=O ... -2.7e-05
CCOC(=O)N1CCN(c2ncnc3c2cnn3-c2ccc(OC)cc2)CC1 ... -4.6e-05
N#CCCN1CCN(S(=O)(=O)c2ccc(S(=O)(=O)NC3CCCC3)cc2)CC1 ... -3.6e-05
CCNc1sc(C(=O)c2cccs2)c(N)c1C#N ... -4.6e-05
CCCCOCCCNC(=O)c1ccc(NC(C)=O)cc1 ... 7.9e-06

Fill in the blank: the reported NADPH fluorescence slope of CCCC1C(c2ccc(OC)cc2)C(C#N)(C#N)C2(C#N)CC1(N)NC2=O (stereo unspecified) is ____.
3.3e-05

Entry Cc1ccc(C)c(N2CCN(C(=O)c3cc4ccccn4n3)CC2)c1 please
-2.1e-05

Entry CC(O)CNc1nc2c(c(=O)n(C)c(=O)n2C)n1Cc1cccc(C(F)(F)F)c1 (stereo unspecified) please
-5e-05

Entry CCOC(=O)C1=C(N)N2C(=O)CSC2=C(C(=O)OC)C1 please
-0.000109

Entry CC(C)OC(=O)c1cccc(C(=O)O)n1 please
-2.4e-05

Entry O=C1CCCN1c1ccc(S(=O)(=O)NCc2ccco2)cc1 please
-3.7e-05

====

Target: Alpha-2C adrenergic receptor (Homo sapiens)
Experiment: modulators of alpha2C/GIRK thallium flux, primary screen, cell-based, HEK293 alpha2C/GIRK1/2 (AID 624);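 further: slope of fluorescence ratio to pre-addition baseline per second over 15 to 24 s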
Conditions: thallium flux BTC fluorescence, at 10 µM, actives lie on both sides
Active and inactive are the calls of the source.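 The calls were made as follows: active = fluorescence slope after compound addition differing from the mean of all screened samples at 99.7% confidence, in either direction; inactive = the rest.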
We begin with a simple list: items and their reported slope.

A selection of reference data follows.
N#Cc1ccc(-c2csc(NC(=O)C3CC3)n2)cc1 ... 0.00647 (inactive)
CCOC(=O)c1c(C)[nH]c(C(=O)COC(=O)c2ccc(F)c(S(=O)(=O)N3CCOCC3)c2)c1C ... 0.00426 (inactive)
COC(=O)CSc1cc(C)nc(NC(C)=O)n1 ... 0.0055 (inactive)

Fill in the blank: the reported slope of CCOC(=O)Cn1c(=O)c(-c2ccccc2N)nc2ccccc21 is ____.
0.00661 (inactive)

Entry O=c1[nH]cnc2c1C1(CCCC1)Cc1ccccc1-2 please
0.00586 (inactive)

Entry CS(=O)(=O)N(Cc1ccccc1)c1ccc(C(=O)N2CCOCC2)cc1 please
0.00702 (inactive)

====

We begin with a simple list: items and their reported inhibition.
Assay: inhibitors of Chlamydomonas gravitaxis, primary screen, whole organism, Chlamydomonas reinhardtii, WT vs cilia-less mutant, absorbance, 96-well (AID 463189);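 further: 0% = wild type cc124 cells in DMSO and 100% = ciliumless bld1 mutant cells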
Details: OD600 absorbance, 2 days, at 10 µM, stronger effect = higher value
All answers are understood in %, so give the number only.

CCCCC(CCC(=O)Nc1ccc(C(=O)OC)cc1)C(=O)O (stereo unspecified) ... 25.1
COc1cccc(C2CC(c3ccccc3Cl)n3nc(N)nc3N2)c1 (stereo unspecified) ... 29.4

Fill in the blank: the reported inhibition of COc1ccccc1NC(=O)CSc1nnc(-c2ccc(NC(C)=O)cc2)n1C is ____.
-1.17

Entry CCC(NC(=O)NC1=NCCS1)(C(F)(F)F)C(F)(F)F please
-2.29

Entry CCc1cc(=O)oc2cc(C)c(CN3CCCC3)c(O)c12 please
3.29

Entry Cc1cc(=O)oc(C)c1C(=O)NC12CC3CC(CC(C3)C1)C2 please
6.04

====

We begin with a simple list: items and their reported z-score.
Experiment: DUSP6 inhibitors restoring Erk phosphorylation by chemical complementation, primary imaging in DUSP6-transfected HeLa (AID 609)
Settings: HeLa MKP-3 transfected, phospho-Erk imaging KS statistic; measured here: nuclear c-Myc green intensity z-score; at 10 µM; cells stimulated with TPA for 15 min
Reply with just the number.

A selection of reference data follows.
CC1(C)CC(=O)C2=C(C1)OC(N)=C(C#N)C2C1C=CCCC1 (stereo unspecified) ... 0.0637
O=C1C2ON(c3ccccc3)C(c3cccnc3)C2C(=O)N1Cc1ccccc1 (stereo unspecified) ... 0.656
Cc1cc(C)c(S(=O)(=O)O)c(C)n1 ... 0.575
COC(=O)c1ccc(C2/C(=C(\O)c3cccc(OC)c3)C(=O)C(=O)N2CCCN2CCOCC2)cc1 (stereo unspecified) ... -1.51
Cc1ccc(-n2ncc3c(NCc4ccc5c(c4)OCO5)ncnc32)c(C)c1 ... 1.64
COCC(C)Nc1ncnc2c1cnn2-c1ccc(Cl)cc1 (stereo unspecified) ... -0.865

Fill in the blank: the reported z-score of CCOC(=O)c1[nH]c2cc3c(cc2c1NC(=O)CN1CC(C)CC(C)C1)OCO3 (stereo unspecified) is ____.
-1.18

Entry CC1(C)C2CCC1(C)C(NC(=O)CCN1CCCCC1)C2 (stereo unspecified) please
1.96

Entry CCCCOC(=O)CCc1nc2ccccc2[nH]1 please
0.108

Entry COc1cc(S(=O)(=O)N2CCN(c3ccc(F)cc3)CC2)ccc1Cl please
-0.838

Entry CCN1CCc2c(C#N)c(N3CCCCC3)nc(N3CCOCC3)c2C1 please
-1.22
